Reported CC50 at 72 h values are given for each entry in this list.
# method_summary: HEK293T 72 h CellTiter-Glo cytotoxicity
# measurement_conditions: human, HEK293T cells
Where a name gives a salt, the structure may show the parent alone.
Give a bare numeral; the unit µM is implied.

Please review the entries below; each comes with its answer.
Using the record for OC(CNCC(O)C1CCc2cc(F)ccc2O1)C1CCc2cc(F)ccc2O1 (stereo not drawn) [Nebivolol HCl] , report its CC50 at 72 h. 5.57

Now this one: CCN(CC)Cc1cc(Nc2ccnc3cc(Cl)ccc23)ccc1O 10

Now this one: CCCCc1oc2ccccc2c1C(=O)c1cc(I)c(OCCN(CC)CC)c(I)c1 10.9

Now this one: COc1ccc2cc1Oc1ccc(cc1)C[C@H]1c3cc(c(OC)cc3CCN1C)Oc1c(OC)c(OC)cc3c1[C@H](C2)N(C)CC3 3.6

Now this one: Cc1c(O)cccc1C(=O)N[C@@H](CSc1ccccc1)[C@H](O)CN1C[C@H]2CCCC[C@H]2C[C@H]1C(=O)NC(C)(C)C [Nelfinavir mesylate] 15.7

Now this one: CNC(=O)c1cc(Oc2ccc(NC(=O)Nc3ccc(Cl)c(C(F)(F)F)c3)cc2)ccn1 3.34

Further cases:
Using the record for OCCN1CCN(CC/C=C2/c3ccccc3Sc3ccc(Cl)cc32)CC1 , report its CC50 at 72 h. 18.6

Now this one: Cc1c(-c2ccc(O)cc2)n(Cc2ccc(OCCN3CCCCCC3)cc2)c2ccc(O)cc12 [Bazedoxifene acetate] 9.19

Now this one: CC(CN(C)C)CN1c2ccccc2CCc2ccccc21 (stereo not drawn) [Trimipramine maleate] 12.8

Now this one: CCc1ccc2c(c1)N(CC(C)CN(C)C)c1ccccc1S2 (stereo not drawn) [Ethylisobutrazine hydrochloride] 10.3

Now this one: CCCCCCOC(=O)NC(=N)c1ccc(NCc2nc3cc(C(=O)N(CCC(=O)OCC)c4ccccn4)ccc3n2C)cc1 [Dabigatran etexilate mesilate] 8.53

----------
# System: Calu-3 cells
# method_summary: Uninfected Calu-3 48 h Cell-Titer Glo cytotoxicity counter screen
# measurement_conditions: read-out: Calu-3 uninfected cytotoxicity CC50 GeoMean; detail block
measured_attribute: CC50 (µM)
Give a bare numeral; the unit µM is implied.

Using the record for CN(C)CC1=C[CH]([Fe][CH]2C=CC=C2)C=C1CNc1ccnc2cc(Cl)ccc12 (stereo not shown) , report its CC50. 17.5

----------
# System: SARS-CoV-2
# method_summary: microbe, parasite or virus in culture
# Assay type: cell-based
# measurement_conditions: Severe acute respiratory syndrome coronavirus 2, HeLa-ACE2, 24 h; read-out: HeLa-ACE2 CoV-2 Sinf Average
measured_attribute: Emax (%)
Give a bare numeral; the unit % is implied.

Using the record for CC[C@H]1OC(=O)[C@H](C)[C@@H](O[C@H]2C[C@@](C)(OC)[C@@H](O)[C@H](C)O2)[C@H](C)[C@@H](O[C@@H]2O[C@H](C)C[C@H](N(C)C)[C@H]2O)[C@](C)(O)C[C@@H](C)CN(C)[C@H](C)[C@@H](O)[C@]1(C)O , report its Emax. 100

Attention now turns to another entry.
Using the record for COc1cc(-n2cnc3cc(-c4ccc(Cl)cc4)sc3c2=O)ccc1OCCN1CCCC1 , report its Emax. 100

----------
Parameter 'readout' = uninfected Calu-3 CC50; parameter 'system' = Calu-3 cells.

Using the record for CCCCC1CCc2cc(O)cc3c(CCN4CCN(c5cc(C)ccn5)CC4)c(C)n1c23 (stereo not shown) [KC 11404] , report its uninfected Calu-3 CC50. 12.778 ×÷ 1.123 (n=3) μM

Now this one: COc1ccc2c(O[C@@H]3C[C@H]4C(=O)N[C@]5(C(=O)NS(=O)(=O)C6CC6)C[C@H]5/C=C\CCCCN(C)C(=O)[C@@H]4C3)cc(-c3nc(C(C)C)cs3)nc2c1C [Simeprevir] > 22.39 ×÷ 1.591 (n=6) μM

Now this one: CC(C)Oc1ccc(-c2nc(-c3cccc4c3CC[C@@H]4NCCO)no2)cc1C#N [Ozanimod] 13.319 ×÷ 1.347 (n=3) μM

Further cases:
Using the record for CCc1ccc(C2=CC(C)(C)Sc3ccc(C#Cc4ccc(C(=O)O)cc4)cc32)cc1 [AGN-194310] , report its uninfected Calu-3 CC50. > 29.867 ×÷ 1 (n=3) μM

Now this one: Oc1ccc(Nc2ccnc3cc(Cl)ccc23)cc1CN1CCCC1 [Amopyroquine] 18.669 ×÷ 1.171 (n=3) μM

Now this one: CNC(=O)n1ccc2cc(Oc3ccnc(NC(=O)c4ccc(C5CCN(CCO)CC5)cc4)c3)c(OCCOC)cc21 [E-7090] 14.98 ×÷ 1.32 (n=3) μM

Now this one: COc1ccc2c(c1)[C@]1(C[C@H]1c1ccc3c(/C=C/c4ccc(CN5C[C@@H](C)O[C@@H](C)C5)cc4)n[nH]c3c1)C(=O)N2 [CFI-400945] > 19.756 ×÷ 1.816 (n=3) μM

----------
# method_summary: Pharmacokinetic studies in Syrian hamsters, PO
# Assay type: in vivo
# measurement_conditions: male, Syrian, hamster, plasma; 500 mg/kg PO, 10%DMSO/90% Corn Oil
Where a name gives a salt, the structure may show the parent alone.
measured_attribute: Tmax (h)
Give a bare numeral; the unit h is implied.

Using the record for Cc1c(O)cccc1C(=O)N[C@@H](CSc1ccccc1)[C@H](O)CN1C[C@H]2CCCC[C@H]2C[C@H]1C(=O)NC(C)(C)C [Nelfinavir mesylate] , report its Tmax. 2.83

----------
# Test system: Calu-3 cells
# measurement_conditions: human, 48 h
Reported Calu-3 uninfected cytotoxicity Sinf Average (%) values are given for each entry in this list.
Give a bare numeral; the unit % is implied.

Please review the entries below; each comes with its answer.
Using the record for CN(C)C(C(=O)Nc1ccc2c(=O)[nH]ccc2c1)c1ccsc1 (stereo not shown) , report its Calu-3 uninfected cytotoxicity Sinf Average (%). 80

Now this one: N=C(N)c1ccc2cc(OC(=O)c3ccc(CNC(=O)CCCC(=O)O)o3)ccc2c1 -100

Now this one: O=c1[nH]ccc2cc(OC3CCNCC3)ccc12 0

Further cases:
Using the record for N#Cc1cccc(C(C(=O)NCC(c2ccccc2)c2ccccc2)N(CCc2c[nH]cn2)C(=O)c2ccccc2C(=O)c2ccccc2)c1 (stereo not shown) , report its Calu-3 uninfected cytotoxicity Sinf Average (%). 0

----------
# method_summary: in vitro
# measurement_conditions: human, Calu-3 uninfected cytotoxicity CC50 GeoMean
Reported CC50 values are given for each entry in this list.

Using the record for CCc1ccc(C2=CC(C)(C)Sc3ccc(C#Cc4ccc(C(=O)O)cc4)cc32)cc1 , report its CC50. > 29.9 µM

Now this one: C=CC(=O)Nc1cc(Nc2nccc(-c3cn(C)c4ccccc34)n2)c(OC)cc1N(C)CCN(C)C 1.69 µM

Now this one: COc1cc(C[C@H]2c3cc(OC)c(OC)cc3CCN2C)c(Oc2cc3c(cc2OC)-c2c(OC)c(OC)cc4c2[C@H](C3)N(C)CC4)cc1OC > 15.3 µM

Now this one: C[C@H]1O[C@@H](O[C@H]2[C@@H](O)C[C@H](O[C@H]3[C@@H](O)C[C@H](O[C@H]4CC[C@@]5(C)[C@H](CC[C@@H]6[C@@H]5C[C@@H](O)[C@]5(C)[C@@H](C7=CC(=O)OC7)CC[C@]65O)C4)O[C@@H]3C)O[C@@H]2C)C[C@H](O)[C@@H]1O > 5.04 µM

Now this one: COc1cc(-n2cnc3cc(-c4ccc(Cl)cc4)sc3c2=O)ccc1OCCN1CCCC1 5.81 µM

Now this one: CCC(CC)COC(=O)[C@H](C)NP(=O)(OC[C@H]1O[C@@](C#N)(c2ccc3c(N)ncnn23)[C@H](O)[C@@H]1O)Oc1ccccc1 (stereo partly shown) [Remdesivir - control] > 30 µM

Attention now turns to another entry.
Using the record for CCC(CC)COC(=O)[C@H](C)N[P@](=O)(OC[C@H]1O[C@@](C#N)(c2ccc3c(N)ncnn23)[C@H](O)[C@@H]1O)Oc1ccccc1 , report its CC50. > 29.9 µM

----------
# Test system: HeLa-ACE2 cells
# method_summary: Uninfected HeLa-ACE2 24 h live/dead cytotoxicity counter screen
# Type: cell-based, human
# measurement_conditions: unrounded geometric mean; read-out: HeLa-ACE2 uninfected cytotoxicity CC50 GeoMean
measured_attribute: CC50 (µM)
Give a bare numeral; the unit µM is implied.

Using the record for NS(=O)(=O)c1ccc(N2N=C(C(F)(F)F)CC2c2c[nH]c3c(Cl)cccc23)cc1 (centres unmarked) , report its CC50. 8.2

Attention now turns to another entry.
Using the record for CCN(CC)CCCNc1nccc2c(C)c3[nH]c4ccc(O)cc4c3c(C)c12 , report its CC50. 0.602

----------
Reported CC50 at 24 h values are given for each entry in this list.
# method_summary: Uninfected HeLa-ACE2 24 h live/dead cytotoxicity counter screen
# Format: cell-based, human
# measurement_conditions: human, uninfected HeLa-ACE2 cells, detail block; read-out: HeLa-ACE2 uninfected cytotoxicity CC50 GeoMean
Counter-ions that a name gives are not always drawn.

Please review the entries below; each comes with its answer.
Using the record for CCN(CC)CCCC(C)Nc1ccnc2cc(Cl)ccc12 (stereo not shown) , report its CC50 at 24 h. > 39.8 µM

Now this one: CCc1ccc2c(c1)N(CC(C)CN(C)C)c1ccccc1S2 (stereo not shown) [Ethylisobutrazine hydrochloride] 20.9 µM

Now this one: N#Cc1c(N)nc(N)nc1N[C@H](c1nc2c(F)ccc(Cl)c2c(=O)n1-c1cccnc1)C1CC1 > 31.1 µM

Attention now turns to another entry.
Using the record for O=C(CCCN1CCN(c2ccc(F)cc2)CC1)NC1c2ccccc2CSc2ccccc21 (stereo not shown) [Monatepil] , report its CC50 at 24 h. > 39 µM
